- ASSAYED TARGET: Genome polyprotein (dengue virus type 2)
- Sequence (P29990 2492-3391 limits assumed): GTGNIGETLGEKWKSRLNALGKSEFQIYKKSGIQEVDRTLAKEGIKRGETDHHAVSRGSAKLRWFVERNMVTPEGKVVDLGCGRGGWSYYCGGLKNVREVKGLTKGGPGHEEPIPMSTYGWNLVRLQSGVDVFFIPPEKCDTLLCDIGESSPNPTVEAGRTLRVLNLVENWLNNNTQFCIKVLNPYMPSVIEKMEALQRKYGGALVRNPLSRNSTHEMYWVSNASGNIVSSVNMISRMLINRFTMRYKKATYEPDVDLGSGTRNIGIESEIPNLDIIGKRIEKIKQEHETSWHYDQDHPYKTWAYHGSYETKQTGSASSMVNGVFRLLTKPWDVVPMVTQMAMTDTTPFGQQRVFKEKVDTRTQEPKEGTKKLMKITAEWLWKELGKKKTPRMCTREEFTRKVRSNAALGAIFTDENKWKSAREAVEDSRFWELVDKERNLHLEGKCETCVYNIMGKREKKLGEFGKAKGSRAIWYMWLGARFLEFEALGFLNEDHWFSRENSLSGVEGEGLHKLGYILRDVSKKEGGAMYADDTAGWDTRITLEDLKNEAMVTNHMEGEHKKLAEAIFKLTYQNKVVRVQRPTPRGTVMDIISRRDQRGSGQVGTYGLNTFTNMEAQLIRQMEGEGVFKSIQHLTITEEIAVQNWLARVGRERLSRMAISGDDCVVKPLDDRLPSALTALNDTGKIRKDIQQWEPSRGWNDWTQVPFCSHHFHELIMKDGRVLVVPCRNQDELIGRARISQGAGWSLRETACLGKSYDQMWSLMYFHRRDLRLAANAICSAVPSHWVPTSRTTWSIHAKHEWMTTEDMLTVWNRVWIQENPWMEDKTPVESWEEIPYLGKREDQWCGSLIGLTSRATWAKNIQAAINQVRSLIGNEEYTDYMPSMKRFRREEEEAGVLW
- METHOD DESCRIPTION: flavivirus cap methylation enzyme inhibition – biochemical, confirmation dose response, primary screen (AID 588689)
- Format: functional
The source made the active and inactive calls. How the calls were made is not given here.
METRIC NAME: IC50

Worked examples, 3 compounds total:
[
  {
    "SMILES": "Cc1nc(COC(=O)c2cc(O)c3ccccc3c2O)cs1",
    "IC50": "43.1 µM (active)"
  },
  {
    "SMILES": "Cc1ccc(S(=O)(=O)N2[C@@H](c3ccc(Cl)c(Cl)c3)C(C(=O)O)=C[C@H]2CC2CCCC2)cc1",
    "IC50": "43.4 µM (active)"
  },
  {
    "SMILES": "C=CCOc1ccc(/C=C2/C(=O)ON=C2C)cc1OCC",
    "IC50": "> 100 µM (active)"
  }
]

Would you kindly share the measured IC50 for CCn1c(CSc2nnc3ccccn23)nc2cc(C(=O)O)ccc21 ?
23.2 µM (active)

Just for reference, ChEMBL document CHEMBL1201862 is where these values come from.
